Tested on: CCRF-CEM leukemia
Assay: NCI tumour cell line growth inhibition, 48 h
Each entry below lists one item and its recorded TGI value.

>  <compound>
CCCNC(C#N)c1ccc(OCCCCCCCCCCOc2ccc(C(C#N)NCCC)cc2)cc1 (centres undefined)

>  <qual>
=

>  <TGI [µM]>
43.7

$$$$
>  <compound>
COc1cc2c(cc1Oc1ccc(OC)c3c1CC1c4c(cc(OC)c(OC)c4-3)CCN1C)CC1c3c(cc(OC)c(OC)c3-2)CCN1C (centres undefined)

>  <qual>
=

>  <TGI [µM]>
10.2

$$$$
>  <compound>
CCN1C(=O)c2ccccc2C1(O)c1ccc(Cl)cc1 (centres undefined)

>  <qual>
>

>  <TGI [µM]>
100

$$$$
>  <compound>
COC(=O)[C@]12CCC(C)(C)C[C@H]1C1=CC[C@@H]3[C@@]4(C)CC[C@H](OC5OC(CO)C(O)C(O)C5OC5OC(CO)C(O)C(O)C5O)C(C)(C)[C@@H]4CC[C@@]3(C)[C@]1(C)CC2 (some centres undefined)

>  <qual>
=

>  <TGI [µM]>
33.8

$$$$
>  <compound>
CC(C)c1c(O[Si](C(C)C)(C(C)C)C(C)C)c2c3c(ccc4c3c1OC4(C)C)C(C)CC2 (centres undefined)

>  <qual>
>

>  <TGI [µM]>
100

$$$$
>  <compound>
NC1=CN(Cc2ccccc2)C2=N/C(=C\c3ccccc3)C(=O)N12

>  <qual>
>

>  <TGI [µM]>
100

$$$$
>  <compound>
CCC[CH2][Ge]([CH2]CCC)([CH2]CCC)[O]C(=O)C(OC)c1ccccc1 (centres undefined)

>  <qual>
>

>  <TGI [µM]>
100

$$$$
>  <compound>
ICCC(c1ccccc1)(c1ccccc1)c1ccccc1

>  <qual>
=

>  <TGI [µM]>
16.3

$$$$
>  <compound>
CCN(CC)CCn1c2cc3c(cc2c(=O)c2cccnc21)OCO3

>  <qual>
>

>  <TGI [µM]>
10

$$$$

* * *

Tested on: NCI-H522 lung
Assay: NCI tumour cell line growth inhibition, 48 h
Each entry below lists one item and its recorded TGI value.

>  <compound>
CC(C)C1SCc2nc3ccccc3n21 (stereo unspecified)

>  <TGI>
> 100 µM

$$$$
>  <compound>
COc1ccc2oc(=O)c(CC=C(C)C)c(O)c2c1C

>  <TGI>
> 100 µM

$$$$
>  <compound>
CN(C)CCNC(=O)Cn1ccc(=O)c2ccc([N+](=O)[O-])cc21

>  <TGI>
> 100 µM

$$$$
>  <compound>
CN1CCCC1=NC#N

>  <TGI>
> 100 µM

$$$$
>  <compound>
Cc1cc2c3ccccc3ccc2[n+]2ccccc12

>  <TGI>
13.1 µM

$$$$
>  <compound>
COC(=O)c1c2c(c(-c3ccccc3)c3c1-c1nc(Cl)ccc1CC3)CCc1ccc(Cl)nc1-2

>  <TGI>
> 100 µM

$$$$
>  <compound>
COc1ccc(C2CC(c3ccc4ccccc4c3O)=NN2C(C)=O)cc1OC (stereo unspecified)

>  <TGI>
> 100 µM

$$$$
>  <compound>
CCCc1c(C(=O)OCC)[nH]c(-c2ccc(-c3[nH]c(C(=O)OCC)c(CCC)c3C(=O)OCC)o2)c1C(=O)OCC

>  <TGI>
> 100 µM

$$$$
>  <compound>
COc1ccc([C@H]2C=C(c3cc(F)c(Cl)cc3Cl)NC(=S)N2)cc1

>  <TGI>
> 100 µM

$$$$
>  <compound>
Cc1cc(S(=O)(=O)n2ccnc2Oc2ccccc2)c(SSc2cc(Cl)c(C)cc2S(=O)(=O)n2ccnc2Oc2ccccc2)cc1Cl

>  <TGI>
> 100 µM

$$$$
>  <compound>
Fc1ccc(-c2nnc3sc(COc4ccccc4Cl)nn23)cc1Cl

>  <TGI>
36.3 µM

$$$$

* * *

System: SK-MEL-2 melanoma
Assay: NCI tumour cell line growth inhibition, 48 h
Each entry below lists one item and its recorded TGI value.
measurement label: TGI (µM)

>  <compound>
CC1(C)CC(OCCCC[P+](c2ccccc2)(c2ccccc2)c2ccccc2)CC(C)(C)N1O

>  <measurement label>
TGI

>  <qual>
=

>  <result number>
0.641

$$$$
>  <compound>
C[C@H]1[C@H](C)CC[C@]2(C(=O)O)CC[C@]3(C)C(=CC[C@@H]4[C@@]5(C)CC[C@H](OC(=O)/C=C/c6ccc(O)cc6)C(C)(C)[C@@H]5CC[C@]43C)[C@H]12

>  <measurement label>
TGI

>  <qual>
=

>  <result number>
50.1

$$$$
>  <compound>
C[n+]1ccc(-c2cc[n+](C)cc2)cc1

>  <measurement label>
TGI

>  <qual>
=

>  <result number>
13.1

$$$$
>  <compound>
CC(=O)c1nc2ccccc2n1CC(=O)c1ccc(Cl)cc1

>  <measurement label>
TGI

>  <qual>
=

>  <result number>
78.1

$$$$
>  <compound>
COc1ccc(C2CC(=O)CC(c3ccc(OC)cc3)C23C(=O)NC(=S)NC3=O)cc1 (stereo not given)

>  <measurement label>
TGI

>  <qual>
>

>  <result number>
100

$$$$

* * *

Tested on: HL-60(TB) leukemia
Experiment: NCI tumour cell line growth inhibition, 48 h

>  <compound>
Cc1cc(=O)oc2c1cc(OCC(=O)OCCN1CCCCC1)c1occ(C)c12

>  <TGI>
> 100 µM

$$$$
>  <compound>
CC(=O)c1nc2ccccc2n1CC(=O)c1ccc(Cl)cc1

>  <TGI>
> 100 µM

$$$$
>  <compound>
CCOC(=O)CCC(C(=O)OCC)n1nnc2ccc(Nc3c(C)[n+]([O-])c4cc(Cl)ccc4[n+]3[O-])cc21 (configuration not stated)

>  <TGI>
83.5 µM

$$$$
>  <compound>
COc1cc(C)c2c(=O)c3c(oc2c1)C(=O)c1c(O)c(OC)cc(O)c1C3=O

>  <TGI>
2.57 µM

$$$$
>  <compound>
O=C(OCC1OC(OC(=O)c2cc(O)c(O)c(OC(=O)c3cc(O)c(O)c(O)c3)c2)C(OC(=O)c2cc(O)c(O)c(OC(=O)c3cc(O)c(O)c(O)c3)c2)C(OC(=O)c2cc(O)c(O)c(OC(=O)c3cc(O)c(O)c(O)c3)c2)C1OC(=O)c1cc(O)c(O)c(OC(=O)c2cc(O)c(O)c(O)c2)c1)c1cc(O)c(O)c(OC(=O)c2cc(O)c(O)c(O)c2)c1 (configuration not stated)

>  <TGI>
> 50 µM

$$$$
>  <compound>
Nc1c(C(=O)c2cccc(C#CCN3CCOCC3)c2)cnn1-c1ccc(F)cc1

>  <TGI>
> 25 µM

$$$$
>  <compound>
CCOC(=O)[C@H]1Nc2ccc(Cl)cc2[C@H]2OCC[C@@H]12

>  <TGI>
> 100 µM

$$$$

* * *

System: ACHN renal
Test: NCI tumour cell line growth inhibition, 48 h
measurement label: TGI

>  <compound>
COC(=O)n1c(=O)n(-c2ccccc2)c(=O)n1C(=O)Nc1ccccc1

>  <measurement label>
TGI

>  <result>
> 100 µM

$$$$
>  <compound>
CN1C(=O)[C@@H]2N(CSC2(C)C)C1=S

>  <measurement label>
TGI

>  <result>
> 100 µM

$$$$
>  <compound>
COc1cc(S(=O)(=O)Nc2nc(-c3ccc(N)cc3)cs2)ccc1Cl

>  <measurement label>
TGI

>  <result>
> 100 µM

$$$$
>  <compound>
Cc1ccc(S(=O)(=O)SCc2ccccc2CSS(=O)(=O)c2ccc(C)cc2)cc1

>  <measurement label>
TGI

>  <result>
> 100 µM

$$$$
>  <compound>
CCOC(=O)C(=Cc1cc(OC)ccc1OC)C(=O)OCC

>  <measurement label>
TGI

>  <result>
31.8 µM

$$$$
>  <compound>
CC1(C)CC(OCCCC[P+](c2ccccc2)(c2ccccc2)c2ccccc2)CC(C)(C)N1O

>  <measurement label>
TGI

>  <result>
7.28 µM

$$$$
>  <compound>
CC(=O)O[C@H]1CC[C@]2(C)[C@H]3CC=C4[C@@H]5CC(C)(C)CC[C@]5(C(=O)NCCNCCN)CC[C@@]4(C)[C@]3(C)CC[C@H]2C1(C)C

>  <measurement label>
TGI

>  <result>
0.388 µM

$$$$
>  <compound>
CC(C)c1c(O[Si](C(C)C)(C(C)C)C(C)C)c2c3c(ccc4c3c1OC4(C)C)C(C)CC2 (stereo unspecified)

>  <measurement label>
TGI

>  <result>
> 100 µM

$$$$
>  <compound>
COc1ccc(CC2c3cc(OC)c(OC)c(OC)c3CC[N+]2(C)C)cc1Oc1ccc(CC2c3cc4c(c(OC)c3CCN2C)OCO4)cc1 (stereo unspecified)

>  <measurement label>
TGI

>  <result>
> 100 µM

$$$$
>  <compound>
CC1=C(C(=O)CC(=O)C(=O)Nc2ccccc2)Sc2ccccc2N1

>  <measurement label>
TGI

>  <result>
> 100 µM

$$$$
>  <compound>
NC(=S)NNC(=O)CCC(=O)Nc1ccc(Cl)cc1Cl

>  <measurement label>
TGI

>  <result>
> 100 µM

$$$$
>  <compound>
O=C(/C=C\c1ccccc1)Oc1ccc(/C=C2\CCCCC2=O)cc1

>  <measurement label>
TGI

>  <result>
> 100 µM

$$$$
>  <compound>
O=C(O)C1=NNC(C(=O)O)=NN1

>  <measurement label>
TGI

>  <result>
> 100 µM

$$$$
>  <compound>
CC(C)Oc1ccc(CNC2=NCCO2)c2ccccc12

>  <measurement label>
TGI

>  <result>
27.7 µM

$$$$
>  <compound>
Cn1c(Sc2ccc(-c3cccnc3)n2C)ccc1-c1cccnc1

>  <measurement label>
TGI

>  <result>
44.9 µM

$$$$
>  <compound>
Cc1cc(N(CCCCl)CCCCl)ccc1C=Nc1cccc(Cl)c1

>  <measurement label>
TGI

>  <result>
25.8 µM

$$$$
>  <compound>
COc1cc([C@@H]2c3cc4c(cc3[C@@H](NCc3ccccc3)C3COC(=O)[C@@H]32)OCO4)cc(OC)c1O (stereo partly specified)

>  <measurement label>
TGI

>  <result>
5.92 µM

$$$$
>  <compound>
C/C=C/C(C#N)(Cc1ccccc1)OP1(=O)OC(c2ccccc2)C(C)N1C (stereo unspecified)

>  <measurement label>
TGI

>  <result>
> 100 µM

$$$$
>  <compound>
O=C1c2ccccc2-c2n[nH]c3cccc1c23

>  <measurement label>
TGI

>  <result>
> 100 µM

$$$$
>  <compound>
NC1CC(=O)c2csc(Cl)c21 (stereo unspecified)

>  <measurement label>
TGI

>  <result>
10.3 µM

$$$$
>  <compound>
COC(=O)[C@@H]1C2OC(C)(C)OC2CN1C(=O)OCc1ccccc1 (stereo partly specified)

>  <measurement label>
TGI

>  <result>
> 100 µM

$$$$
>  <compound>
C[C@H]1[C@H](C)CC[C@]2(C(=O)O)CC[C@]3(C)C(=CC[C@@H]4[C@@]5(C)CC[C@H](OC(=O)/C=C/c6ccc(O)cc6)C(C)(C)[C@@H]5CC[C@]43C)[C@H]12

>  <measurement label>
TGI

>  <result>
9.12 µM

$$$$
>  <compound>
CCOC(=O)[C@H]1Nc2ccc(Cl)cc2[C@H]2OCC[C@@H]12

>  <measurement label>
TGI

>  <result>
> 100 µM

$$$$
>  <compound>
CCO/C=N/C1=C(C#N)C(c2ccc(Cl)cc2)c2c(-c3ccccc3)nn(-c3ccccc3)c2O1 (stereo unspecified)

>  <measurement label>
TGI

>  <result>
29.5 µM

$$$$
>  <compound>
CCCCCCCCCCCC[n+]1ccccc1

>  <measurement label>
TGI

>  <result>
14.2 µM

$$$$
>  <compound>
Nc1c(C(=O)c2cccc(CCC3(O)CCCC3)c2)cnn1-c1ccc(F)cc1

>  <measurement label>
TGI

>  <result>
> 25 µM

$$$$
>  <compound>
Cc1nc(-c2nc(C)c(C(=O)NN(C)C)s2)sc1C(=O)NN(C)C

>  <measurement label>
TGI

>  <result>
> 100 µM

$$$$
>  <compound>
CCN1C(=O)c2ccccc2C1(O)c1ccc(Cl)cc1 (stereo unspecified)

>  <measurement label>
TGI

>  <result>
> 100 µM

$$$$
>  <compound>
N#Cc1c(N)c2c(c(-c3ccccc3)c1-c1ccccc1)C(=O)N(NC(=O)c1ccccc1)C2=O

>  <measurement label>
TGI

>  <result>
> 100 µM

$$$$
>  <compound>
N#CCN1CCOCCOCCN(CC#N)CCOCCOCC1

>  <measurement label>
TGI

>  <result>
> 100 µM

$$$$
>  <compound>
CCOC(=O)CCC(NC(=O)c1ccc(Nc2nc3ccccc3n3cccc23)cc1)C(=O)OCC (stereo unspecified)

>  <measurement label>
TGI

>  <result>
46 µM

$$$$
>  <compound>
CN(C)CCNC(=O)Cn1ccc(=O)c2ccc([N+](=O)[O-])cc21

>  <measurement label>
TGI

>  <result>
> 100 µM

$$$$
>  <compound>
CO[C@@H]1C=C[C@@]23c4cc5c(cc4C(O)N(CC2O)C3C1)OCO5 (stereo partly specified)

>  <measurement label>
TGI

>  <result>
18.6 µM

$$$$
>  <compound>
CC(C)(C)OC(=O)NC(Cc1ccc(OCc2ccccc2)cn1)C(=O)NCc1ccccc1 (stereo unspecified)

>  <measurement label>
TGI

>  <result>
> 100 µM

$$$$
>  <compound>
COc1cc(C(=O)C/C(CCC(=O)Nc2ccc(Cl)cc2Cl)=N/NC(=O)C(N)=O)ccc1O

>  <measurement label>
TGI

>  <result>
> 100 µM

$$$$
>  <compound>
C[C@]12CCC3c4ccc(O)cc4CCC3C1Cc1ccc(O)cc12 (stereo partly specified)

>  <measurement label>
TGI

>  <result>
22.3 µM

$$$$
>  <compound>
CC(C)[Si](OC1=C(C(=O)N(C)c2ccccc2Cl)CCCC1)(C(C)C)C(C)C

>  <measurement label>
TGI

>  <result>
29.5 µM

$$$$
>  <compound>
OCc1ccc2c(c1)CC1(C2)Cc2cc3c(cc2C1)CCC3

>  <measurement label>
TGI

>  <result>
> 82.4 µM

$$$$
>  <compound>
CC(=O)C1C(=O)C(=O)N(c2ccccc2N2C(=O)C(=O)C(C(C)=O)C2=O)C1=O (stereo unspecified)

>  <measurement label>
TGI

>  <result>
> 100 µM

$$$$
>  <compound>
Cc1cc(C)n(-c2nc3ccccc3c(=O)n2-c2ccccc2)n1

>  <measurement label>
TGI

>  <result>
> 100 µM

$$$$
>  <compound>
CC1(c2nc3ccccc3[nH]2)CCC(C(N)=O)C(C)(C)O1 (stereo unspecified)

>  <measurement label>
TGI

>  <result>
> 100 µM

$$$$
